- Condition: in n-hexane, 313.15 K
Endpoint Label: solubility (mole fraction)
Answer using only a numeral; do not append any unit.

Determine its reported solubility (mole fraction): Clc1ccccc1C(c1ccccc1)(c1ccccc1)n1ccnc1
0.000455

----------
- Condition: in n-octanol, 293.15 K
Endpoint Label: solubility (mole fraction)

Identify measured solubility (mole fraction) associated with Clc1ccccc1C(c1ccccc1)(c1ccccc1)n1ccnc1
0.0204

----------
- Condition: in n-octanol, 303.15 K
Endpoint Label: solubility (mole fraction)
# output: bare number, no unit

State its solubility (mole fraction) for this compound: Clc1ccccc1C(c1ccccc1)(c1ccccc1)n1ccnc1
0.0304

----------
- Condition: in n-hexane, 293.15 K
Endpoint Label: solubility (mole fraction)
Give the value as a plain number.

Find the measured solubility (mole fraction) of Clc1ccccc1C(c1ccccc1)(c1ccccc1)n1ccnc1 and report it.
0.000222
